# study target: microtubules assembled from porcine brain tubulin (porcine, UniProt P02550 1-451; P02554 1-445)
# Sequence (P02550 whole entry, chain 1 of 2): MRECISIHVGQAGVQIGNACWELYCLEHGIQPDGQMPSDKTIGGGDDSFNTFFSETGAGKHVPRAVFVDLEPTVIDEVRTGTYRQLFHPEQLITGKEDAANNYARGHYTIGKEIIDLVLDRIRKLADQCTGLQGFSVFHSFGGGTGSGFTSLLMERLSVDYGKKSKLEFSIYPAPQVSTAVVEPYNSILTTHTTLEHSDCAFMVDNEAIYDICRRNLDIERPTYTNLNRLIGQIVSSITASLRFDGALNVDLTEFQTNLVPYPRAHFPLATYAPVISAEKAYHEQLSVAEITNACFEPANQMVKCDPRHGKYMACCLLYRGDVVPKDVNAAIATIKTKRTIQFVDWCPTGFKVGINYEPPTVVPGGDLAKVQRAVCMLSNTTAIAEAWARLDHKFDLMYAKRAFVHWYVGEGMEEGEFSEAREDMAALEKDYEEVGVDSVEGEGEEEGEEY
# Sequence (P02554 whole entry, chain 2 of 2): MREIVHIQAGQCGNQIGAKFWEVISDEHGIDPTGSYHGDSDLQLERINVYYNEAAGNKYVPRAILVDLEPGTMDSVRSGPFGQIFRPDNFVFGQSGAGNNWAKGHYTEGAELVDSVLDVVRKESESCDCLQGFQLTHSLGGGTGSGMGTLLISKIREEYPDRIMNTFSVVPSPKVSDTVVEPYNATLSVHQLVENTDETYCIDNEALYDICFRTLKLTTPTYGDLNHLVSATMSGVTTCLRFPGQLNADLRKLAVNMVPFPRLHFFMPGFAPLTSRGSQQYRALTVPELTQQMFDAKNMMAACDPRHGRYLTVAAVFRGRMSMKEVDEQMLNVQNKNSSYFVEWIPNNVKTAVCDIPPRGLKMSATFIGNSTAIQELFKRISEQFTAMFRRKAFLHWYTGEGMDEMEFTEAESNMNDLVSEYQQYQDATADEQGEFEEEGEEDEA
# assay remarks: co-sedimentation
measure: Kd (µM)
Give bare numbers, in µM.

Q) Query: Kd; subject: FQDNSSLFQNTVASRARELYARQLIQELRQKQEKKVFLKKARK (domain or fragment, Mus musculus, UniProt A4Q9E8 460-502, looked up) [TTLL6 MTBH1-2 (460–502)]
A) 3.7

FYI, the data here is from paper PMC11529724.
